# ASSAY_SUMMARY: Cytotoxicity against HEK293 cells assessed as reduction in cell viability at 50 uM after 24 hrs by resazurin dye based fluorescence assay
# CONDITION_SUMMARY: human, read-out: INH
VALUE_KIND: cytotoxicity at 24 h, 50 µM

[Q] Query (compound): CCCCCC(=O)c1c(O)cc(O)c2c1OC1=C(C(=O)C(C)(C)C(=O)C1(C)C)C2CC(C)C (racemic) ; field requested: cytotoxicity at 24 h, 50 µM
[A] 58%
